- TARGET_ENTITY: SARS-CoV-2 Spike-Fc, Delta (B1 617 2/India) variant (SARS-CoV-2), P0DTC2
pIC50: −log10 of the molar value.
In this section, each of the binders is paired with its reported pIC50.
RESULT_TYPE: pIC50

BINDER	RESULT_TYPE	MEASURED_VALUE
EQAKTFLDKFNHEAEDLFLWRALWRLWRSLWRLLWK (modifications not checked) [Seq33 (LNCOV-18)]	pIC50	7.59
KTFLDKFNHEAEDLFPGPKWSAFLKEQSTLAQMYG (modifications not checked) [Seq28 (LNCOV-20)]	pIC50	7.53
